# tgt: T1, RBD derived from SARS-CoV-2 (Wuhan strain) (SARS-CoV-2 (Wuhan strain), UniProt P0DTC2 319-541)
# T1 construct: domain: RBD
# experimental_details: RBD beads, antibody 0.25 µg/mL, then labelled ACE2, flow cytometry
attribute_measured: fluorescence of ACE2 protein
Answer with the value's number alone.

Respond only with fluorescence of ACE2 protein recorded for Ab287 (antibody, V domains shown) VH: QVQLVQSGAEVKKPGSSVKVSCKASGDTFSSYAISWVRQAPGQGLEWMGRIILIFGVANYAQKFQGRVTITADKSTSTAYMELSSLRSEDTAVYYCARGGFYYDSSGYHLDYWGQGTLVTVSS VL: EIVLTQSPGTLSLSPGERATLSCRPSQSVSSSYLAWYQQRPGQAPRLLIYGASSRATGIPDRFSGSGSGTDFTLTISRLEPEDFAVYYCHQYGSSPRTFGQGTKVEIK
689

Output measured fluorescence of ACE2 protein for this item: Ab336 (antibody, V domains shown) VH: QVQLQQSGPGLVKPSETLSLTCTVSGGSISSYYWTWIRQPPGKGLEWIAYISYSGSTNYNPSLRSRVTISVDTSKNQFSLKLSSVTAADTAVYYCARDYYYDNSGYPDSYYGMDVWGQGTTVTVSS VL: DIQLTQSPSTLSASVGDRVTITCRASQRISSWLAWYQQKPGKAPKLLIYKASTLQSGVPSRFSGSGSGTEFTLTISSLQPDDFATYYCQQYNSFSWTFGQGTKVEIK
1110

Please report the measured fluorescence of ACE2 protein for Ab114 (antibody, V domains shown) VH: EVQLVESGGGLIQPGGSLRLSCAASGFTVSSNYMNWVRQAPGKGLEWVSVIYSGGSTFYADSVKGRFTISRDNSKNTLYLQMNSLRVEDTAVYYCARDLDTQGGMDVWGQGTTVTVSS VL: EIVLTQSPGSLSLSPGERATLSCRASQGVSSSYLAWYQHKPGQAPRLLIFGASTRATGIPDRFSGSGSGTDFTLTISRLEPEDFAVYYCQLYGSSPGTFGQGTKLEIK
3900

Provide measured fluorescence of ACE2 protein value, entry: Ab326 (antibody, V domains shown) VH: EVQLVESGGGVVQPGRSLRLSCAASGFTFSHYPMHWVRQAPGRGLEWVAVISYDGSNQHYVDSVKGRFTISRDNSKNTLYLQMNSLRAEDTAVYFCASLITMIRGVPDYWGQGTLVTVSS VL: DIQMTQSPSSLSASVGDRVTITCRASQSISNYLNWYQQKPGKAPNLLIFAASSLQSGVPSRFSGSGSGTEFTLTISSLQPEDFAAYYCLQTYSTPRTFGQGTRLEIK
516

Indicate the recorded fluorescence of ACE2 protein value for this binder: Ab176 (antibody, V domains shown) VH: EVQLVESGGGLVQPGGSLRLSCAASGFTFSSYSMNWVRQAPGKGLEWVSYISGSSSTIYYADSVKGRFTISRDNAKNSLYLQMNSLRAEDTAVYYCVSSEWLLPRFFDYWGQGTLVTVSS VL: QPVLTQEASVSGTVGQKVTLSCTGNRNNIGSYPVGWYQQISHGAPKTVMFGNSPPSGIPDRFFGSRSGTTASLTISGLQPEDEADYYCSTWDYSLSAVVFGGGTKLTVL
2660

Answer with the recorded fluorescence of ACE2 protein of Ab376 (antibody, V domains shown) VH: EVQLVESGGGLVQPGGSLRLSCEASEFTLNSHYMNWVRQAPGKGLEWVSVIYSSGSTYYADSVKGRFTISRHNSKDTLYLQMNSLKPEDTAVYYCARPNYGGNSIWYFDLWGRGTLVTVSS VL: DIQMTQSPSSVSASVGDRVTITCRASQGIGSWLAWYQQTPGKAPKLLIYAASSLQSGVPSRFSGSGSGTDFTLTISSLQPEDFATYYCQQANSFPLTFGGGTKVEIK only.
445

Input Ab496 (antibody, V domains shown) VH: EVQLVQSGPEVKKPGTSVKVSCKASGFIFTNSAVQWVRQARGQRLEWIGWIVVGSGNPNYAQKFQERVTITRDRSTSTAYMELSSLTSEDTAVYYCAAFPYYYDNSGSGPWGQGTLVTVSS VL: DIQLTQSPSSLSASVGDRVTITCQASQDIRNNLNWYQQIPGKAPKLLIYDASNLETGVPSRFSGSASGTDFTFTISSLQPEDVATYYCQQYANLPPFTFGPGTKVDIK , output reported fluorescence of ACE2 protein.
2580

Return fluorescence of ACE2 protein for the following binder: Ab302 (antibody, V domains shown) VH: EVQLVESGGGLVQPGGSLRLSCAASGVIVSRNYMTWVRQAPGKGLEWVSVIYSGGSTFYADSVKGRFTISRDNSKNTLYLQMNSLRAEDTAVYYCARDRGEDVFDIWGQGTMVTVSS VL: DIQLTQSPSSLSASVGDRVTITCRASQGISSYLAWYQQKPGKAPKLLIYAASTLQSGVPSRFSGSGSGTDFTLTISSLQPEDFATYYCQQLNSYPGYTFGQGTKLEIK
1400

Please report the measured fluorescence of ACE2 protein for Ab159 (antibody, V domains shown) VH: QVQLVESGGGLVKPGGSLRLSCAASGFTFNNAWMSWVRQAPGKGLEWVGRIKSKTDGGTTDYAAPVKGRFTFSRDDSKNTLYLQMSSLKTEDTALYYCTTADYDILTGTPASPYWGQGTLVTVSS VL: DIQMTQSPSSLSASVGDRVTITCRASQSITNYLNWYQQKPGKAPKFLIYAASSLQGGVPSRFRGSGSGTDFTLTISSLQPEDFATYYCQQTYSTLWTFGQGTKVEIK
486

Item Ab175 (antibody, V domains shown) VH: EVQLVESGGGLVQPGGSLRLSCAASGIIVSSNYMTWVRQAPGKGLEWVSVLYSGGSTFYADSVKGRFTISRDNSKNMLYLQMNSLRAEDTAVYYCARDLQELGVDCWGQGTLVTVSS VL: DIQLTQSPSFLSASVGDRVTITCRASQGISSYLAWYQQKPGKAPKLLIYAASTLQSGVPSRFSGSGSGTEFTLTISSLQPEDFATYYCQQLDSYPRFGGGTKVEIK : provide fluorescence of ACE2 protein
1660

Consider the binder Ab369 (antibody, V domains shown) VH: QVQLVQSGAEVKKPGASVKVSCKASGYTLTNRAIHWVRQAPGQRLEWMGWINAGKGNTKYSQKFQGRVTITRDTSASTAYMELSSLKSEDTAFYYCATGDGYNYGYDSWGQGTLVTVSS VL: NFMLTQPPSVSVAPGKTARISCGGTNIGSKSVHWYQQKPGQAPVLVVHDDSDRPSGIPERFSASNSGNTATLTISRVEAGDEADYYCQVWDSTSDLPEVVFGGGTKLTVL and give its recorded fluorescence of ACE2 protein.
1640
